testSystem: Gal(b1-3)Gal
procedureDetails: glycan array binding signal (z-score within array); higher = stronger binding
conditionLabel: glycan notation: IUPAC condensed, linker removed
Shown is part of a subset that was picked to be rich in the strongest signals.
Reported values of glycan array binding signal (z-score) for individual entries
Form: value (number only, do not type unit).

Known results for binders:
binder="CFEM-SCL (Saccharomyces cerevisiae), O13547 (protein) MRATTLLSSVVSLALLSKEVLATPPACLLACVAQVGKSSSTCDSLNQVTCYCEHENSAVKKCLDSICPNNDADAAYSAFKSSCSEQNASLGD" assayreadout="glycan array binding signal (z-score)" value=4.26
binder="NKp30 (Homo sapiens), O14931 (protein) LWVSQPPEIRTLEGSSAFLPCSFNASQGRLAIGSVTWFRDEVVPGKEVRNGTPEFRGRLAPLASSRFLHDHQAELHIRDVRGHDASIYVCRVEVLGLGVGTGNGTRLVVEKEHPQLG" assayreadout="glycan array binding signal (z-score)" value=-0.378

Turning now to a further record.
Q: Indicate its recorded glycan array binding signal (z-score); the binder in question is Gal 4 (Homo sapiens), Q8K419 (protein) MAYVPAPGYQPTYNPTLPYKRPIPGGLSVGMSVYIQGMAKENMRRFHVNFAVGQDDGADVAFHFNPRFDGWDKVVFNTMQSGQWGKEEKKKSMPFQKGKHFELVFMVMPEHYKVVVNGNSFYEYGHRLPVQMVTHLQVDGDLELQSINFLGGQPAAAPYPGAMTIPAYPAGSPGYNPPQMNTLPVMTGPPVFNPRVPYVGALQGGLTVRRTIIIKGYVLPTARNFVINFKVGSSGDIALHLNPRIGDSVVRNSFMNGSWGAEERKVAYNPFGPGQFFDLSIRCGMDRFKVFANGQHLFDFSHRFQAFQMVDTLEINGDITLSYVQI
Ans: 0.459
